Biological target: ATR kinase (Homo sapiens)
Construct: endogenous in cells; host or cells: HT29 cells (ECACC #85061109)
Sequence (Q13535 whole entry): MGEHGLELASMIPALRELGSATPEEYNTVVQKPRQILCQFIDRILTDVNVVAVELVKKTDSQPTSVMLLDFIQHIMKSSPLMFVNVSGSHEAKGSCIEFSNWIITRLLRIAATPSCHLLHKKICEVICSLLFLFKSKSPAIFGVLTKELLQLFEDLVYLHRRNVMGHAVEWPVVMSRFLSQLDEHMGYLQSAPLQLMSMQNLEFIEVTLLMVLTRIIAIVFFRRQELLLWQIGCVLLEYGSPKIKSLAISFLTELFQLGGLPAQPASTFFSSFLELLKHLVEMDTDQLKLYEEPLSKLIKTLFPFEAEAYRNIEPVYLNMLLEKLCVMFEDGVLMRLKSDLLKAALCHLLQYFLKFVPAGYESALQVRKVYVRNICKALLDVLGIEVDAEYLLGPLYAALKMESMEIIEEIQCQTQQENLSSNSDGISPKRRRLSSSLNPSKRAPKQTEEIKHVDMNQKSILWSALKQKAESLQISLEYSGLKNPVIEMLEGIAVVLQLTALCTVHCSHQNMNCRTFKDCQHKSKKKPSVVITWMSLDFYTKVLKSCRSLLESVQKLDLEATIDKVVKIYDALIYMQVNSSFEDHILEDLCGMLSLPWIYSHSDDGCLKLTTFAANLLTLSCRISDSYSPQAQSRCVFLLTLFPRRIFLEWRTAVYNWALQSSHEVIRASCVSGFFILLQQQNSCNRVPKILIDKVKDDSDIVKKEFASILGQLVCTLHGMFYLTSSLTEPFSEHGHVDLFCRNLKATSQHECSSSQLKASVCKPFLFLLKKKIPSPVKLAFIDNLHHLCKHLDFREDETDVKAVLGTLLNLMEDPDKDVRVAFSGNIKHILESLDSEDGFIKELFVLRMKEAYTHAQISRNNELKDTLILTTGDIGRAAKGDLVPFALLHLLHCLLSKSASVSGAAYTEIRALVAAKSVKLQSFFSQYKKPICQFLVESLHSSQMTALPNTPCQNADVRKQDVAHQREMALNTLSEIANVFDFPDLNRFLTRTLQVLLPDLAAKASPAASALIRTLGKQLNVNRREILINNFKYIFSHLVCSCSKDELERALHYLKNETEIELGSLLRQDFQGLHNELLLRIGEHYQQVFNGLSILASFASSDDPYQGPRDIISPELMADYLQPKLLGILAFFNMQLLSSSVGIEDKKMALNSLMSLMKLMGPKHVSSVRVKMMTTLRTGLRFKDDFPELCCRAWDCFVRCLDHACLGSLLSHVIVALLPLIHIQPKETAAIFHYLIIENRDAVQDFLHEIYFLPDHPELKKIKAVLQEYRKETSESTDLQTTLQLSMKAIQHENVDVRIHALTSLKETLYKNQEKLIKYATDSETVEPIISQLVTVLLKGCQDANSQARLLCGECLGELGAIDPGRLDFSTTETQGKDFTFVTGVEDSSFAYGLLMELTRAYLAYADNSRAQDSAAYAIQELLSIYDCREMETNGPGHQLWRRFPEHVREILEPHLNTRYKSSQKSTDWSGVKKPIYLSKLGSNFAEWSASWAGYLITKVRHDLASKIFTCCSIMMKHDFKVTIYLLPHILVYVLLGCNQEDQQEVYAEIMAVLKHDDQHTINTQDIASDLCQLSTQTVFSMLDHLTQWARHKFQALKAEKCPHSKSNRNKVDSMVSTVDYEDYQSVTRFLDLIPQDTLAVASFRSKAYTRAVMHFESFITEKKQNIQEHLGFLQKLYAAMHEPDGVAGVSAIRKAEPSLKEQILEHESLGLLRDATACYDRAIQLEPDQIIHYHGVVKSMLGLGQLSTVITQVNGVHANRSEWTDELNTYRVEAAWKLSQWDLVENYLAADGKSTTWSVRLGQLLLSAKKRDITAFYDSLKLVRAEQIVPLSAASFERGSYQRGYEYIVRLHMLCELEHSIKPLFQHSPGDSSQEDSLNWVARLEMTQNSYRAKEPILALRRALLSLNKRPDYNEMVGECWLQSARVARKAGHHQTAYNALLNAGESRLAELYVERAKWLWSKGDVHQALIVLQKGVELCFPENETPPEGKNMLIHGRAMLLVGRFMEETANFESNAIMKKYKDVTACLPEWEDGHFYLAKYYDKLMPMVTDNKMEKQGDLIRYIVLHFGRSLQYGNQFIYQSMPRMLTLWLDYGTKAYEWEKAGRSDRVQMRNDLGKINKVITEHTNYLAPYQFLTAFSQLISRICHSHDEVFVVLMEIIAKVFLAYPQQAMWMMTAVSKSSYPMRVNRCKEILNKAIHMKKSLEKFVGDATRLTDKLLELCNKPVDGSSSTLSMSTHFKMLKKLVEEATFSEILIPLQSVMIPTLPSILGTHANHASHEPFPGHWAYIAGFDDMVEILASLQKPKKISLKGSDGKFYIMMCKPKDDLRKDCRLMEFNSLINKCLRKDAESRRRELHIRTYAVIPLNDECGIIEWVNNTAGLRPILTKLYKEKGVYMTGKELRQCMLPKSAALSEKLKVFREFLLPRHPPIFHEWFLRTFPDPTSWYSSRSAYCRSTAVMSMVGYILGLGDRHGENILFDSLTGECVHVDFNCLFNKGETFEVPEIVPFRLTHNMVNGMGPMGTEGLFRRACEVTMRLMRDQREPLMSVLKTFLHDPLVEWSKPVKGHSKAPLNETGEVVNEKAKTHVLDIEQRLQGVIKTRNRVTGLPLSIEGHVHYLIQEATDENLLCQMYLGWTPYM
Sequence (Q8WXE1 whole entry partner): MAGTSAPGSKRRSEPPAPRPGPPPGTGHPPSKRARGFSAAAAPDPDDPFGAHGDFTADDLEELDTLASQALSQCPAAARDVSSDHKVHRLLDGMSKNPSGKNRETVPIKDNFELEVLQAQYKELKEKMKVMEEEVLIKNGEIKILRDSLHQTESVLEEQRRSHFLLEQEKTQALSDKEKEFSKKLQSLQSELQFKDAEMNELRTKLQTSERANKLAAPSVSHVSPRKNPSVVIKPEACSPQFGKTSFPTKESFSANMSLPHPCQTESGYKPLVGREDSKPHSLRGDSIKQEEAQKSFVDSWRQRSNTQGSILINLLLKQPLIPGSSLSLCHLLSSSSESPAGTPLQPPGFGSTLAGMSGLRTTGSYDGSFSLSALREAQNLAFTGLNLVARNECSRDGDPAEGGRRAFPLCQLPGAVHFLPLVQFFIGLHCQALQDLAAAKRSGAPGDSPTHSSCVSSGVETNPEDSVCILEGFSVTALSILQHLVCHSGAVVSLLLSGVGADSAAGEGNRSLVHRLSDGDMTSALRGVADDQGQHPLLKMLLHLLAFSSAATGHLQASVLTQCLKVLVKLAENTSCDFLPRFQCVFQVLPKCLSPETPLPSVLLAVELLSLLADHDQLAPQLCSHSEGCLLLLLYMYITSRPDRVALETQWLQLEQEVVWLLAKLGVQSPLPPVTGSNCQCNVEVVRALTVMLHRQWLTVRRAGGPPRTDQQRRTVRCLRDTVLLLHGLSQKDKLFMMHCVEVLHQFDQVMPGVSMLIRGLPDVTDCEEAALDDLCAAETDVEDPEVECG
Assay: Assay b): ATR cellular potency (pChk1 Ser345 in HT29 cells after 4NQO)
Format: cell-based
Settings: HT29 cells, 4NQO, pChk1 Ser345; Table 2; read-out: Assay b) ATR Cell IC50
Measurement Kind: IC50 (µM)

{"columns": ["Compound", "Measured Target", "IC50 (µM)"],
 "data": [
  ["Cn1c(=O)n([C@H]2CCCOC2)c2c3cc(-c4ccc(OCCCN5CCCC5)cc4)ccc3ncc21 [Example 15]", "ATR kinase (Homo sapiens)", 21.6]
]}

(a) CO[C@@H]1CC[C@@H](n2c(=O)n(C)c3cnc4ccc(-c5ccc(OCCCN6CCCC6)cc5)cc4c32)C1 (single isomer, unassigned) [Example 20]
(b) CO[C@H]1CCC[C@H](n2c(=O)n(C)c3cnc4ccc(-c5ccc(OCCCN6CCCC6)cc5)cc4c32)C1 (single isomer, unassigned) [Example 31]
Pick one, a or b : lowest reported IC50. Selection: enter the item's label.
b
(b: 10.9 µM, a: 21.3 µM)
